Data provenance: patent US20120178701A1

Documented Ki across a set of binders
Target: T1, human recombinant melanocortin-4 receptor (human, UniProt P32245 1-332)
T1 construct: whole, on cells; cAMP assays used the whole cells; also called hMC4-R; MC4-R
T1 sequence (P32245 whole entry): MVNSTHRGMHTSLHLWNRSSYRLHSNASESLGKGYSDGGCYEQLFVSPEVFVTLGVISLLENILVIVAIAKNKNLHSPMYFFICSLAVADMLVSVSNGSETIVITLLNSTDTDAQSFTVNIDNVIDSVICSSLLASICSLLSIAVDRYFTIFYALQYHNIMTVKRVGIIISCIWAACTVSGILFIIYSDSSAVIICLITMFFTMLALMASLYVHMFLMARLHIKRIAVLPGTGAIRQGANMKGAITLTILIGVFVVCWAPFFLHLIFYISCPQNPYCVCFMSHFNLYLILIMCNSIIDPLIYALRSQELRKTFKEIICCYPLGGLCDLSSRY
Assay: competitive inhibition of [I125]-NDP-α-MSH, hMC4-R HEK-293 membranes
Numbered stars: 1 amine (or outer) side, 2 acyl side, 3 side chain; on linkers, the order of the positions; unused ones are H or OH. Bridge positions count the residues as written; N and C are the ends. Square brackets hold non-standard residues; d marks the D form. Pro(trans-4-NH2) = O=C([C@@H]1C[C@@H](N[*:3])CN1[*:1])[*:2]; Met(O2) = CS(=O)(=O)CC[C@H](N)C(=O)O; Orn = NCCC[C@H](N)C(=O)O
MEASURE NAME: Ki (nM)

[[record]]
binder = "Ac-RE[Pro(trans-4-NH2)][dF]RW[Orn]-NH2 (lactam 2-7, also called peptide No. 112) [Ac-Arg-Cyclo(Glu-Pro(4R-NH2)-D-Phe-Arg-Trp-Orn)-NH2]"
observed = 6

[[record]]
binder = "Ac-RE[Orn](Ac)[dF]RW[Orn]-NH2 (lactam 2-7, also called peptide No. 149) [Ac-Arg-cyclo(Glu-Orn(Acetyl)-D-Phe-Arg-Trp-Orn)-NH2]"
observed = 7

[[record]]
binder = "Ac-RKQ[dF]RWD-NH2 (lactam 2-7, also called peptide No. 151) [Ac-Arg-cyclo(Lys-Gln-D-Phe-Arg-Trp-Asp)-NH2]"
observed = 4

[[record]]
binder = "RDHXRWK (N-acetyl; X4 = D-Nal 1 (D-3-(1-naphthyl)alanine); side-chain lactam Asp2-Lys7; C-terminal amide, also called peptide No. 19) [Ac-Arg-cyclo(Asp-His-D-Nal 1-Arg-Trp-Lys)-NH2]"
observed = 3

[[record]]
binder = "Ac-RDS[dF]RWK-NH2 (lactam 2-7, also called peptide No. 3) [Ac-Arg-cyclo(Asp-Ser-D-Phe-Arg-Trp-Lys)-NH2]"
observed = 172

[[record]]
binder = "Ac-REH[dF]RW[Orn]-OH (lactam 2-7, also called peptide No. 82) [Ac-Arg-cyclo(Glu-His-D-Phe-Arg-Trp-Orn)-OH]"
observed = 4

[[record]]
binder = "Ac-RE[Met(O2)][dF]RW[Orn]-NH2 (lactam 2-7, also called peptide No. 100) [Ac-Arg-cyclo(Glu-Met(O2)-D-Phe-Arg-Trp-Orn)-NH2]"
observed = 8

